Target: Human TLR7 (Homo sapiens, UniProt Q9NYK1)
Construct: expressed in transfected cells; host or cells: HEK293 (hTLR7/seap-293)
Sequence (Q9NYK1 27-1049): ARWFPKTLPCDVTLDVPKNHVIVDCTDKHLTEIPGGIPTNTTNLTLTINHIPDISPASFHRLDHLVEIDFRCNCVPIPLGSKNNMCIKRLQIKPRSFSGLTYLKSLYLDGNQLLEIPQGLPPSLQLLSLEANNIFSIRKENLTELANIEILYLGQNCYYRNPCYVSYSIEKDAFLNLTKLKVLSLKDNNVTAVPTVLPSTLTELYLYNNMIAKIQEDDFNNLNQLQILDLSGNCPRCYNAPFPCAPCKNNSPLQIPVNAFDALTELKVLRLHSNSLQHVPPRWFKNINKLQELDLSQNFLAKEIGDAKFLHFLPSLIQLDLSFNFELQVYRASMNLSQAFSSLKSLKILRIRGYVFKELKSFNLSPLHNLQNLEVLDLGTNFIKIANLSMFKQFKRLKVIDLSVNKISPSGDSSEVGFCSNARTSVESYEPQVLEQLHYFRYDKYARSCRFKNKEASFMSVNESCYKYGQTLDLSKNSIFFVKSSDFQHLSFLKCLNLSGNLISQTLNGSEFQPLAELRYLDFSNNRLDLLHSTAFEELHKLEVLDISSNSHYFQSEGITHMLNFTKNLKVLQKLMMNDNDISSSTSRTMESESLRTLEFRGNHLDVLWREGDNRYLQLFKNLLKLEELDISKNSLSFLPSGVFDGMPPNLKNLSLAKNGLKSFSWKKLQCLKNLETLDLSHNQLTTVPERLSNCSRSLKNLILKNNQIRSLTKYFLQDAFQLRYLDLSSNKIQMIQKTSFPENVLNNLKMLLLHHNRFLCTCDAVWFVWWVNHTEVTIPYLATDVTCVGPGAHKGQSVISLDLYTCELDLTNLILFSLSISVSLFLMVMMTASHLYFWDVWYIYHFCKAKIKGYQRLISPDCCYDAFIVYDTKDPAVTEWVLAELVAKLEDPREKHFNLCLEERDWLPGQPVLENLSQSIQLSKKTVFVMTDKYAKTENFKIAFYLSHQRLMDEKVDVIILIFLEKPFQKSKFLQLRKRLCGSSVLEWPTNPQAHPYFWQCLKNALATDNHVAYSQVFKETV
Test: Human TLR7 reporter assay (NF-kB-SEAP)
Assay type: cell-based
Conditions: HEK293 cells stably carrying human TLR7 plasmid and NF-kB-SEAP reporter; 20 hours incubation; 1 nM-10 μM; absorbance 405 nm; read-out: Human TLR7 binding activity (pEC50) (converted)
reportedEndpoint: EC50 (nM)

Sample records with EC50:
compoundStructure	studyTarget	reportedEndpoint	unitText	endpointResult
CCCCOc1nc(N)c2[nH]c(=O)n(CCCCCCCN3CCN(c4ccc(OC)cc4)CC3)c2n1	Human TLR7 (Homo sapiens, UniProt Q9NYK1)	EC50	nM	251
CCCCOc1nc(N)c2[nH]c(=O)n(CCCCCCCN3CCC(Oc4ccc(Cl)cc4C)CC3)c2n1	Human TLR7 (Homo sapiens, UniProt Q9NYK1)	EC50	nM	631

P. CCCCOc1nc(N)c2[nH]c(=O)n(CCCCCCCN3CCN(c4ccc(C(C)=O)cc4)CC3)c2n1
Q. CCCCOc1nc(N)c2[nH]c(=O)n(CCCN3CCN(C/C=C/c4ccccc4)CC3)c2n1
R. CCCCOc1nc(N)c2[nH]c(=O)n(CCCCCCCN3CCN(c4ccncc4)CC3)c2n1
Order the items by recorded EC50; the first position goes to the largest value. Write the labels out in the order the request specifies.
Q, P, R
